assay: Solubility at different pH values at 37 °C, shake-flask; assay type: physicochemical; conditions: 37 °C, pH 7.4, aqueous buffer, thermodynamic from solid, pH 7.4, 37 °C, 24 h agitation; read-out: Solubility
Measure name: solubility at 24 h (mg/mL)
Give bare numbers, in mg/mL.

Ask | Return reported solubility at 24 h; argument: C=CCc1ccc(O)c(-c2cc(CC=C)ccc2O)c1 [Magnolol, 5, 5′-diallyl-2, 2′-dihydroxybiphenyl]
Reply | 0.0305

###

assay: Octanol-water distribution coefficients; type: physicochemical; conditions: Log Do/w
Measure name: logP
One number for each entry.

Ask | Give the measured logP of C=CCc1ccc(O)c(-c2ccc(O)c(CC=C)c2)c1 [Honokiol, 3,5′-diallyl-4,2′-dihydroxybiphenyl] .
Reply | 4.27

###

Assay: Octanol-water distribution coefficients
Format: physicochemical
Conditions: aqueous phase pH 1.2, n-octanol, room temperature, mean ± SD, n = 4; read-out: Log Do/w
Procedure: Octanol–water distribution coefficients (Do/w) of magnolol and honokiol were determined by dissolving each compound in n-octanol, previously saturated with buffer (pH 1.2, 4.5, 6.8, and 7.4) or water, using glass vials. […] Thereafter, the organic and the aqueous phases were separated by centrifuging the contents of the vials (2 min at 8000× g), and the concentration of each compound in both phases was determined by HPLC. […]
Measure name: logD
Answers are plain numbers.

Ask | Which logD is reported for this compound? C=CCc1ccc(O)c(-c2cc(CC=C)ccc2O)c1 [Magnolol, 5, 5′-diallyl-2, 2′-dihydroxybiphenyl]
Reply | 4.5

###

test: Octanol-water distribution coefficients; assay type: physicochemical; details: pH 7.4
Measure name: logD
Give bare numbers.

Ask | # query: logD of entry C=CCc1ccc(O)c(-c2ccc(O)c(CC=C)c2)c1 [Honokiol, 3,5′-diallyl-4,2′-dihydroxybiphenyl]
Reply | 4.28

###

assay: Solubility at different pH values at 37 °C, shake-flask; type: physicochemical; settings: 37 °C, thermodynamic from solid, pH values lower than 7.4, 37 °C, 24 h agitation; read-out: Solubility
Measure name: solubility at 24 h

Ask | What value of solubility at 24 h has been recorded for this entry: C=CCc1ccc(O)c(-c2cc(CC=C)ccc2O)c1 [Magnolol, 5, 5′-diallyl-2, 2′-dihydroxybiphenyl]
Reply | ~16 µg/mL

###

assay: Octanol-water distribution coefficients; assay type: physicochemical; conditions: aqueous phase pH 4.5, n-octanol, room temperature, mean ± SD, n = 4; read-out: Log Do/w
Measure name: logD
One number for each entry.

Ask | Value lookup for logD; key = C=CCc1ccc(O)c(-c2cc(CC=C)ccc2O)c1 [Magnolol, 5, 5′-diallyl-2, 2′-dihydroxybiphenyl]
Reply | 4.55

###

experiment: Octanol-water distribution coefficients; assay type: physicochemical; conditions: pH 6.8
Measure name: logD
Answers are plain numbers.

Ask | Look up logD for this compound: C=CCc1ccc(O)c(-c2ccc(O)c(CC=C)c2)c1 [Honokiol, 3,5′-diallyl-4,2′-dihydroxybiphenyl]
Reply | 4.48

###

assay: Octanol-water distribution coefficients; assay type: physicochemical; settings: pH 4.5
Measure name: logD
One number for each entry.

Ask | Bench note: what logD did C=CCc1ccc(O)c(-c2ccc(O)c(CC=C)c2)c1 [Honokiol, 3,5′-diallyl-4,2′-dihydroxybiphenyl] show?
Reply | 4.5

###

assay: Solubility at different pH values at 37 °C, shake-flask; assay type: physicochemical; conditions: 37 °C, thermodynamic from solid
Measure name: solubility at 24 h

Ask | Return reported solubility at 24 h; argument: C=CCc1ccc(O)c(-c2ccc(O)c(CC=C)c2)c1 [Honokiol, 3,5′-diallyl-4,2′-dihydroxybiphenyl]
Reply | ~75 µg/mL

###

assay: Solubility in water, shake-flask method; type: physicochemical; conditions: water, room temperature, preliminary solubility test; read-out: Solubility in water
Measure name: solubility at 24 h (µg/mL)
Answers are plain numbers, in µg/mL.

Ask | So what's the measured solubility at 24 h for this one? C=CCc1ccc(O)c(-c2cc(CC=C)ccc2O)c1 [Magnolol, 5, 5′-diallyl-2, 2′-dihydroxybiphenyl]
Reply | 12.5

###

experiment: pKa, graphical estimation from solubility-pH data; format: physicochemical
Measure name: pKa

Ask | I would be grateful if you could share the reported pKa for C=CCc1ccc(O)c(-c2ccc(O)c(CC=C)c2)c1 [Honokiol, 3,5′-diallyl-4,2′-dihydroxybiphenyl] .
Reply | 8.5

###

test: Octanol-water distribution coefficients; format: physicochemical; conditions: aqueous phase pH 7.4, n-octanol, room temperature, mean ± SD, n = 4; read-out: Log Do/w
Measure name: logD
One number for each entry.

Ask | Could you tell me which logD is on file for C=CCc1ccc(O)c(-c2cc(CC=C)ccc2O)c1 [Magnolol, 5, 5′-diallyl-2, 2′-dihydroxybiphenyl] ?
Reply | 4.3

###

experiment: Solubility in water, shake-flask method; type: physicochemical
Measure name: solubility at 24 h (µg/mL)
Numbers only, in µg/mL.

Ask | Quick check: solubility at 24 h of C=CCc1ccc(O)c(-c2ccc(O)c(CC=C)c2)c1 [Honokiol, 3,5′-diallyl-4,2′-dihydroxybiphenyl] ?
Reply | 50.6

###

assay: pKa, graphical estimation from solubility-pH data; format: physicochemical; details: intersection of straight lines of solubility-pH profile (Figure 3); read-out: pKa, graphical estimation
Measure name: pKa
One number for each entry.

Ask | I am curious: what pKa value has been reported for C=CCc1ccc(O)c(-c2cc(CC=C)ccc2O)c1 [Magnolol, 5, 5′-diallyl-2, 2′-dihydroxybiphenyl] ?
Reply | 7.2

###

assay: Solubility at different pH values at 37 °C, shake-flask; format: physicochemical; details: 37 °C, pH 8, aqueous buffer, thermodynamic from solid, pH 8 phosphate buffer, 37 °C; read-out: Solubility
Measure name: solubility at 24 h (µg/mL)
Numbers only, in µg/mL.

Ask | solubility at 24 h for C=CCc1ccc(O)c(-c2cc(CC=C)ccc2O)c1 [Magnolol, 5, 5′-diallyl-2, 2′-dihydroxybiphenyl] ?
Reply | 76

###

assay: Solubility at different pH values at 37 °C, shake-flask; format: physicochemical; conditions: 37 °C, pH 1.2, simulated gastric fluid, thermodynamic from solid, pH 1.2, 37 °C, 24 h agitation; read-out: Solubility
Measure name: solubility at 24 h (µg/mL)
Numbers only, in µg/mL.

Ask | Data request, read-out solubility at 24 h, for C=CCc1ccc(O)c(-c2cc(CC=C)ccc2O)c1 [Magnolol, 5, 5′-diallyl-2, 2′-dihydroxybiphenyl]
Reply | 14.8
